biological target: androgen receptor (AR-LBD) (Rattus norvegicus, UniProt P15207); construct: 5 μL of 2×AR-LBD/Fluoromone AL Red Complex contained in the kit; purchased Invitrogen; experiment: Evaluation of androgen receptor affinity (PolarScreen Androgen Receptor Competitor Assay Kit, Red; fluorescence polarization); settings: 22° C. for 5 hours, relative to binding rate of 1 μM DHT, read-out: AR affinity (pEC50) (converted)
Sequence (P15207 651-882 limits assumed): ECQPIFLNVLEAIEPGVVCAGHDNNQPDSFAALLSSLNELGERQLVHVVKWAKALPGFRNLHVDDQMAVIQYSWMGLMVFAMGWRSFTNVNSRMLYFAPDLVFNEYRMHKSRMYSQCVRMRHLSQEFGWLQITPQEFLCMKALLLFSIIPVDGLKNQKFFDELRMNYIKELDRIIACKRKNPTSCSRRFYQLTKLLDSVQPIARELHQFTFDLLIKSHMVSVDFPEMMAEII
quantity-kind: EC50 (nM)

Solved entries:
{"smiles-text": "Cc1sc(N(Cc2ccccc2)c2ccc(F)cc2F)nc1C(=O)NS(C)(=O)=O", "target": "androgen receptor (AR-LBD) (Rattus norvegicus, UniProt P15207)", "numeric-readout": 1260}
{"smiles-text": "COc1ccccc1CCN(c1ccc(C#N)cc1)c1nc(C(=O)NS(C)(=O)=O)c(C)s1", "target": "androgen receptor (AR-LBD) (Rattus norvegicus, UniProt P15207)", "numeric-readout": 100}

I: Cc1sc(N(Cc2ccccc2)c2ccc(C#N)cc2)nc1C(=O)NS(=O)(=O)CCC(F)(F)F
II: COc1ccccc1CN(c1ccc(C#N)cc1)c1nc(C(=O)NS(C)(=O)=O)c(Br)s1
III: Cc1sc(N(Cc2ccccc2)c2ccc(C#N)cc2Br)nc1C(=O)NS(C)(=O)=O
Arrange by EC50, high to low. Enter labels, ranked according to the request.
III, II, I
(III: 631 nM, II: 100 nM, I: 63.1 nM)

----------
target: androgen receptor (AR-LBD) (Rattus norvegicus); construct: 5 μL of 2×AR-LBD/Fluoromone AL Red Complex contained in the kit; purchased Invitrogen; experiment: Evaluation of androgen receptor affinity (PolarScreen Androgen Receptor Competitor Assay Kit, Red; fluorescence polarization); settings: 22° C. for 5 hours, relative to binding rate of 1 μM DHT, read-out: AR affinity (pEC50) (converted)
quantity-kind: EC50 (nM)

{"smiles-text": "Cc1sc(N(Cc2csc(C(C)C)n2)c2ccc(C#N)cc2)nc1C(=O)NS(C)(=O)=O", "quantity-kind": "EC50", "u": "nM", "numeric-readout": 50.1}

I: Cc1sc(N(Cc2ccc(-c3ccc(F)cc3)cc2)c2ccc(C#N)cc2)nc1C(=O)NS(C)(=O)=O
II: Cc1sc(N(Cc2ccccc2)c2ccc(C#N)cc2)nc1C(=O)NS(=O)(=O)Cc1ccncc1
Quick check, higher EC50 between I and II ? # answer = label of selected item
II
(II: 100 nM, I: 50.1 nM)

----------
target: human androgen receptor (Homo sapiens, UniProt P10275); construct: expressed in transfected cells; host or cells: HEK293; test: Reporter assay of an androgen receptor responsive sequence (luciferase, transiently transfected HEK293 cells); assay type: cell-based; conditions: 24 hours incubation, relative to activity of 100 nM DHT, read-out: AR transcriptive activity (pEC50) (converted)
Sequence (P10275 whole entry): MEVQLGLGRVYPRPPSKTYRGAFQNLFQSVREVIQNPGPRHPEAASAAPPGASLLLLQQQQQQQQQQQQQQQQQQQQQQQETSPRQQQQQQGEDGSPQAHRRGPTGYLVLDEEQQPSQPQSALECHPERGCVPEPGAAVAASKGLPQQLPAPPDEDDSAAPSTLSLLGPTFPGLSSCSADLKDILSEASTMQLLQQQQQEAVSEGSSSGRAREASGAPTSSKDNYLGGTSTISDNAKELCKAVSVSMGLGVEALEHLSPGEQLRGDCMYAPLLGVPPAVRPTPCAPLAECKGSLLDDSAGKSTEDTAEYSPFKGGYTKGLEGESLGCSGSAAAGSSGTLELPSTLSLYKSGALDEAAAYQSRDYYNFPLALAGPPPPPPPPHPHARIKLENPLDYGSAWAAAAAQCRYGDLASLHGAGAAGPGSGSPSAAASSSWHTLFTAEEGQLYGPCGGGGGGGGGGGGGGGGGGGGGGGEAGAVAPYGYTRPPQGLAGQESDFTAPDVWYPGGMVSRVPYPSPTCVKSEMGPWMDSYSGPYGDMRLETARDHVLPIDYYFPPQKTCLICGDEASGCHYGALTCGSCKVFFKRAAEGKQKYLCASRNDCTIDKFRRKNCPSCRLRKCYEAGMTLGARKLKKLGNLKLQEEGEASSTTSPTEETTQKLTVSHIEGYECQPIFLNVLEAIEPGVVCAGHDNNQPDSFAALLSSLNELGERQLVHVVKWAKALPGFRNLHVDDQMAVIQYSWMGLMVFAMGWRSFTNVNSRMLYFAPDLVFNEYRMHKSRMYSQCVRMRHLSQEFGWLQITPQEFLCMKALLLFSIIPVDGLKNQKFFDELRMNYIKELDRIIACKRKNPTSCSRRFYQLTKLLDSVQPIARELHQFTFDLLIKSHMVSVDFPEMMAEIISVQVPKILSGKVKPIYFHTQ
quantity-kind: EC50 (nM)

{"smiles-text": "Cc1sc(N(Cc2ccc(Br)c(F)c2)c2ccc(C#N)cc2)nc1C(=O)NS(C)(=O)=O", "EC50 [nM]": 25.1}
{"smiles-text": "Cc1sc(N(CCc2cccc(O)c2)c2ccc(C#N)cc2)nc1C(=O)NS(C)(=O)=O", "EC50 [nM]": 1580}
{"smiles-text": "Cc1sc(N(Cc2cc(F)cc3cccnc23)c2ccc(C#N)cc2)nc1C(=O)NS(C)(=O)=O", "EC50 [nM]": 316}

a: COCCCS(=O)(=O)NC(=O)c1nc(N(CCc2ccc(C#N)cc2)Cc2ccc(OC(F)(F)F)cc2)sc1C
b: Cc1nc(CN(CCc2ccc(OC(F)(F)F)cc2)c2nc(C(=O)NS(C)(=O)=O)c(C)s2)cs1
Quick check, higher EC50 between a and b ? # answer = label of selected item
a
(a: 1000 nM, b: 501 nM)
